- Tested on: MCF-7
- procedureSummary: Crystal violet growth assay
- Assay type: cell-based, human
- conditions: read-out: IC50 of long-term proliferation, MCF-7, 7 days
measuredAttribute: IC50 (µM)

querysmiles=CC1=C[C@H](O/C=C2/C(=O)O[C@@H]3c4ccccc4C[C@H]23)OC1=O measuredattribute=IC50 readoutnumber=18.8
